Experimental Protocol: viability loss with induced miR-34 in A549 – imaging, A549 dox-inducible miR-34, nuclei and caspase counts, primary screen (AID 1347080)
Details: A549 miR-34 inducible, Hoechst nuclei count, 48 h; active compounds read low; cell number ratio, induced over uninduced
Value Type: fold change

compound="CC1(C)S[C@@H]2[C@H](NC(=O)C(C(=O)O)c3ccsc3)C(=O)N2[C@H]1C(=O)O (some centres undefined)" readout_value=0.946
compound=CSc1ccccc1C(=O)N1CCc2[nH]nc(COc3ccccc3)c2C1 readout_value=0.941
compound=COc1ccccc1C(=O)N1CCC(n2cc(-c3ccccn3)nn2)CC1 readout_value=0.917
compound="CN1CC(=O)N2C(Cc3c([nH]c4ccccc34)C2c2ccc3c(c2)OCO3)C1=O (centres undefined)" readout_value=0.932
compound=CNCc1cc(-c2ccccc2F)n(S(=O)(=O)c2cccnc2)c1 readout_value=0.924
compound=Cn1c(=O)c2[nH]c(-c3ccccc3)nc2n(C)c1=O readout_value=1.06
compound=COc1ccc2c(c1)CCN(C(=O)Nc1n[nH]c(-c3ccco3)n1)C2 readout_value=0.87
compound=CCC(=O)N1CCN(C(=O)c2ccccc2)CC1 readout_value=0.906
compound="O=C1O[C@H](C(O)CO)C(O)C1O (some centres undefined)" readout_value=0.859
compound="OC[C@H]1OC(n2cnc3c(N[C@H]4CCC[C@@H]4O)ncnc32)[C@H](O)[C@@H]1O (some centres undefined)" readout_value=1.03
compound=CC(=O)O[C@]1(C(C)=O)CC[C@H]2[C@@H]3C[C@H](C)C4=CC(=O)C=C[C@]4(C)[C@@]3(F)[C@H](O)C[C@@]21C readout_value=0.862
compound=O=C(O)Cc1c[nH]c2ccccc12 readout_value=0.913
compound=COc1ccc(CCC(=O)O)cc1OC readout_value=0.922
compound="Cc1nsc(NC(=O)N2CCCC(C)(O)C2)n1 (centres undefined)" readout_value=0.901
compound=Nc1ncnc2c1c(-c1ccc(Oc3ccccc3)cc1)cn2C1CCCC1 readout_value=1.28
compound="C[C@]12CCC3c4ccc(O)cc4CCC3C1CCC2O (some centres undefined)" readout_value=1.11
compound=Nc1nc2ccc(Cl)cc2n2c(-c3ccccc3)nnc12 readout_value=1.08
compound="Cc1nc2n(c(=O)c1CCN1CCC(c3noc4cc(F)ccc34)CC1)CCCC2O (centres undefined)" readout_value=1.04
compound=COc1cc(-c2ncn(C=CC(=O)OC(C)C)n2)cc(C(F)(F)F)c1 readout_value=0.884
compound=CC(C)COC(=O)OCN1C(=O)CN(CCN2CC(=O)N(COC(=O)OCC(C)C)C(=O)C2)CC1=O readout_value=0.995
compound="COC1CC2CCC(C)[C@@](O)(O2)C(=O)C(=O)N2CCCCC2C(=O)OC(C(C)CC2CCC(OCCO)C(OC)C2)CC(=O)C(C)C=C(C)C(O)C(OC)C(=O)C(C)CC(C)C=CC=CC=C1C (some centres undefined)" readout_value=1.03
compound="COCCCOc1cc(CC(CC(N)C(O)CC(C(=O)NCC(C)(C)C(N)=O)C(C)C)C(C)C)ccc1OC (centres undefined)" readout_value=0.942
compound="COc1cc(=O)n(C)c2c(OCC(O)C(C)(C)O)cccc12 (centres undefined)" readout_value=0.801
compound="C[C@]12C=CC(=O)C=C1CCC1C2C(O)C[C@@]2(C)C1CC[C@]2(O)C(=O)COC(=O)CCC(=O)O (some centres undefined)" readout_value=0.962
compound="Cc1cccc(C)c1OCC(=O)NC(Cc1ccccc1)C(O)CC(Cc1ccccc1)NC(=O)C(C(C)C)N1CCCNC1=O (centres undefined)" readout_value=1
compound=CC(C)(C)C(=O)Nc1ccc2c(c1)C(=O)C(=O)c1ccccc1-2 readout_value=1.31
compound=CCCC[C@@H](C)/C=C(C)/C=C(\C)C(=O)NC1=C[C@@](O)(/C=C/C=C/C=C/C(=O)NC2=C(O)CCC2=O)[C@@H]2O[C@@H]2C1=O readout_value=1.01
compound=COc1cc(C=CC(=O)C=C(O)C=Cc2ccc(O)c(OC)c2)ccc1O readout_value=0.901
compound=Cc1cncc(CN2CCC(=C3c4ccc(Cl)cc4CCc4cccnc43)CC2)c1 readout_value=1.04
compound=C[C@H](O)C(=O)C1=Nc2c(nc(N)[nH]c2=O)NC1 readout_value=0.965
compound="CC1(C)S[C@H]2C(NC(=O)C(N)c3ccccc3)C(=O)N2C1C(=O)O (some centres undefined)" readout_value=0.913
compound=COC(=O)C1=CO[C@@H](C)[C@H]2CN3CCc4c([nH]c5ccccc45)[C@@H]3C[C@H]12 readout_value=0.773
compound=CNCc1ccccc1-c1cccs1 readout_value=0.861
compound=Clc1nccc2c1ccc1ccccc12 readout_value=1.47
compound=CCOC(=O)Oc1c(OC)cc(C(=O)O[C@@H]2C[C@@H]3CN4CCc5c([nH]c6cc(OC)ccc56)[C@H]4C[C@@H]3[C@H](C(=O)OC)[C@H]2OC)cc1OC readout_value=0.795
compound="CCCCC(=O)N(Cc1ccc(-c2ccccc2-c2nn[nH]n2)cc1)C(C(=O)O)C(C)C (centres undefined)" readout_value=0.925
compound="COc1ccc2c(C(=O)N(C)C3CCN(C)C3)cc(-c3cnn(C)c3)nc2c1 (centres undefined)" readout_value=0.88
compound=COc1ccc(/C=C2\COc3ccc(C)cc3C2=O)cc1O readout_value=1.16
compound="C=CC[N+]1(C2C[C@H]3[C@@H]4CC[C@H]5CC(O)C(N6CCOCC6)C[C@]5(C)[C@@H]4CC[C@]3(C)C2OC(C)=O)CCCC1 (some centres undefined)" readout_value=0.951

====

Experimental Protocol: galactose survival enhancers in mitochondrial complex I cybrids – cell-based, galactose medium, ATP luminescence, primary screen (AID 1645843);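 also: positive z means more ATP and so rescue of galactose-driven cybrid death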
Details: complex I mutant cybrid cells, 72 h, active compounds read high
Value Type: z-score

compound=CNCCc1cnc(CCC(c2ccccc2)c2ccccc2)[nH]1 value_type=z-score readout_value=-0.725
compound="CC1=C(C(=O)O)N2C(=O)[C@@H](NC(=O)C(N)C3=CCC=CC3)[C@H]2SC1 (stereo partly specified)" value_type=z-score readout_value=-0.29
compound="C#C[C@]1(O)CCC2C3CCC4=CC(=O)CCC4C3CC[C@@]21CC (stereo partly specified)" value_type=z-score readout_value=0.65
compound=COc1cccc2c(=O)n(Cc3ccc4nonc4c3)cnc12 value_type=z-score readout_value=-0.545
compound=CCNc1ncc(-c2cc(C(=O)N(C)CCN(C)C)c3cc(F)ccc3n2)cn1 value_type=z-score readout_value=-0.56
compound="CC1CC2C3CC(F)C4=CC(=O)C(Cl)=C[C@]4(C)[C@@]3(F)C(O)C[C@]2(C)[C@@]1(O)C(=O)CO (stereo partly specified)" value_type=z-score readout_value=0.895
compound=COc1ccc(CN2CCN(c3nccc(-c4cn(C)nc4C)n3)CC2=O)cc1 value_type=z-score readout_value=-0.37
compound=CCCCNC(=O)[C@@H]1C[C@H](CN2CCOCC2)CN(Cc2ccccc2)C1 value_type=z-score readout_value=-0.205
compound=O=C(NCCc1ccco1)c1cc(C2CC2)[nH]n1 value_type=z-score readout_value=-0.495
compound="OCC1CCCN(C2CCN(c3ncnc4sccc34)CC2)C1 (stereo unspecified)" value_type=z-score readout_value=1
compound=O=C(O)c1ccccc1C(=O)O value_type=z-score readout_value=0.455

====

Experimental Protocol: drug combination growth inhibition, ovarian cancer – cell-based, oncology-focused library, rucaparib conditional, profiling panel (AID 1508598)
Details: patient-derived ovarian cancer cells, CellTiter-Glo viability, 144 h; at 0.00488 µM; OCI-C5x cells; with rucaparib 10 µM; active compounds read low; 100% = cells with rucaparib alone
The source made the active and inactive calls.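 How the source made its calls: active means normalized viability below 100% at a tested concentration; inactive means the rest.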
Value Type: viability

compound=c1ccc(Cn2c(-c3ccc(OC[C@H](C4CCNCC4)n4c(-c5ccccc5)nc5ccccc54)cc3)nc3ccccc32)cc1 value_type=viability readout_value="125% (inactive)"
compound=COc1cc([C@H]2c3cc4c(cc3[C@@H](O[C@@H]3O[C@@H]5CO[C@@H](c6cccs6)O[C@H]5[C@H](O)[C@H]3O)[C@H]3COC(=O)[C@H]23)OCO4)cc(OC)c1O value_type=viability readout_value="97.4% (active)"
compound=Cc1ccc(NC(=O)c2ccc(CN3CCN(C)CC3)cc2)cc1Nc1nc(-c2cccnc2)cs1 value_type=viability readout_value="112% (inactive)"
compound="CC[C@]1(O)C[C@@H]2CN(CCc3c([nH]c4ccccc34)[C@@](C(=O)OC)(c3cc4c(cc3OC)N(C=O)[C@@H]3C45CCN4CC=C[C@](CC)([C@H]45)[C@H](OC(C)=O)[C@]3(O)C(=O)OC)C2)C1 (stereo partly specified)" value_type=viability readout_value="101% (inactive)"
compound=CC1(C)O[C@@H]2C[C@H]3[C@@H]4CCC5=CC(=O)C=C[C@]5(C)[C@]4(F)[C@H](O)C[C@]3(C)[C@@]2(C(=O)CO)O1 value_type=viability readout_value="106% (inactive)"
compound=COc1cccc2c1C(=O)c1c(O)c3c(c(O)c1C2=O)C[C@@](O)(C(=O)CO)C[C@H]3O[C@H]1C[C@H](N)[C@H](O)[C@H](C)O1 value_type=viability readout_value="118% (inactive)"
